# testedSystem: RARβ (Mus musculus (Mouse), UniProt P22605)
# Sequence (P22605 210-444): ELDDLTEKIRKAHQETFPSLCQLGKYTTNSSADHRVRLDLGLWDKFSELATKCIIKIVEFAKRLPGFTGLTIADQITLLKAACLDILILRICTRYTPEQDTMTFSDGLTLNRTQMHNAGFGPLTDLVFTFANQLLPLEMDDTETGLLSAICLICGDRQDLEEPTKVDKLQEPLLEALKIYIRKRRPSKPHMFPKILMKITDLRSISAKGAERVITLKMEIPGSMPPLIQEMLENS
# runDescription: Transactivation assay for RARβ (gal4-RAR fusion, pFR-luc reporter, COS-7 cells), Table 2
# Format: cell-based
# measurementSetup: COS-7 reporter, mean of three or more determinations, species not stated (method: mouse or human)
readoutType: pEC50
One number for each entry, as −log10 of the molar value.

[[record]]
compound = "Cc1ccc(Cl)c2cc(-c3nc(-c4ccc(C(=O)O)cc4)no3)oc12 [BHBA-016]"
readouttype = "pEC50"
experimentalresult = 8.57

[[record]]
compound = "Cc1ccc(C)c2oc(-c3noc(-c4ccc(C(=O)O)cc4Cl)n3)cc12 [BHBA-031]"
readouttype = "pEC50"
experimentalresult = 7.77


Look up pEC50 for the entries below, preserving their order.
1. Cc1ccc(C)c2c(C)c(-c3nc(-c4ccc(C(=O)O)cc4Cl)no3)oc12 [BHBA-009]
2. Cc1ccc(C(C)C)c2cc(-c3nc(-c4ccc(C(=O)O)cc4)no3)oc12 [BHBA-010]
3. Cc1ccc(C)c2oc(-c3noc(-c4ccc(C(=O)O)cc4)n3)cc12 [BHBA-028]

8.38
8.54
8.09

====

Provide the recorded pEC50 for the entries that follow.
# testedSystem: RARα (Mus musculus (Mouse))
# runDescription: Transactivation assay for RARα (gal4-RAR fusion, pFR-luc reporter, COS-7 cells), Table 2
# measurementSetup: Table 2; COS-7 reporter; mean of three or more determinations; inactive = no agonist action at highest concentration tested
One number for each entry, as −log10 of the molar value.

Below, 6 compounds whose answers are already recorded.
[[record]]
compound = "Cc1ccc(C)c2oc(-c3nnc(-c4ccc(C(=O)O)cc4)o3)cc12 [BHBA-034]"
readouttype = "pEC50"
experimentalresult = 7.04

[[record]]
compound = "O=C(O)c1ccc(-c2noc(-c3cc4c(Cl)ccc(Cl)c4o3)n2)cc1F [BHBA-014]"
readouttype = "pEC50"
experimentalresult = 7.92

[[record]]
compound = "Cc1ccc(Cl)c2cc(-c3nc(-c4ccc(C(=O)O)cc4)no3)oc12 [BHBA-016]"
readouttype = "pEC50"
experimentalresult = 7.74

[[record]]
compound = "Cc1ccc(C)c2sc(-c3nc(-c4ccc(C(=O)O)cc4)no3)nc12 [BHBA-027]"
readouttype = "pEC50"
experimentalresult = 7.21

[[record]]
compound = "Cc1ccc(C)c2oc(-c3nc(-c4ccc(C(=O)O)cc4)ns3)cc12 [BHBA-038]"
readouttype = "pEC50"
experimentalresult = 7.72

[[record]]
compound = "O=C(O)c1ccc(-c2noc(-c3cc4c(C(F)(F)F)ccc(F)c4o3)n2)cc1 [BHBA-019]"
readouttype = "pEC50"
experimentalresult = 7.72


Look up pEC50 for the entries below, preserving their order.
1. Cc1ccc(C)c2oc(-c3noc(-c4ccc(C(=O)O)cc4Cl)n3)cc12 [BHBA-031]
2. Cc1ccc(C)c2oc(-c3nc(-c4ccc(C(=O)O)cc4Cl)ns3)cc12 [BHBA-039]
3. Cc1ccc(C)c2oc(-c3nnc(-c4ccc(C(=O)O)cc4Cl)o3)cc12 [BHBA-036]
4. O=C(O)c1ccc(-c2noc(-c3cc4c(Cl)ccc(Cl)c4o3)n2)cc1 [BHBA-011]
5. Cc1c(Cl)cc(C)c2oc(-c3nc(-c4ccc(C(=O)O)cc4)no3)cc12 [BHBA-045]
6. Cc1ccc(C)c2oc(-c3nc(-c4ccc(C(=O)O)cc4N)no3)cc12 [BHBA-005]
7. Cc1cc(-c2nsc(-c3cc4c(C)ccc(C)c4o3)n2)ccc1C(=O)O [BHBA-040]
8. Cc1ccc(C)c2oc(-c3noc(-c4ccc(C(=O)O)c(F)c4)n3)cc12 [BHBA-033]

1: 6.82; 2: 7.19; 3: 6.65; 4: 7.59; 5: 7.04; 6: 6.89; 7: 7.14; 8: 7.35

====

# testedSystem: UniProtKB P18911
# Sequence (P18911 185-419): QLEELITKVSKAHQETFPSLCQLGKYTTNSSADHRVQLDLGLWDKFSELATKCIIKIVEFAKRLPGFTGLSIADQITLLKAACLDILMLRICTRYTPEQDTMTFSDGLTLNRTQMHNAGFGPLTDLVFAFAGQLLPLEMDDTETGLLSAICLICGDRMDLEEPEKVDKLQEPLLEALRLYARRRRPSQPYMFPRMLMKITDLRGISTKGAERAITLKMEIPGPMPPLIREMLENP
# runDescription: Transactivation assay for RARγ (gal4-RAR fusion, pFR-luc reporter, COS-7 cells), Table 2
# measurementSetup: Table 2; COS-7 reporter; mean of three or more determinations; inactive = no agonist action at highest concentration tested
Provide the recorded EC50 for the entries that follow.
Give bare numbers, in nM.

[[record]]
molecularstring = "Cc1ccc(C)c2oc(-c3nc(-c4ccc(C(=O)O)cc4)no3)cc12"
readouttype = "EC50"
experimentalresult = 11

[[record]]
molecularstring = "Cc1cc(-c2noc(-c3nc4c(C)ccc(C)c4o3)n2)ccc1C(=O)O"
readouttype = "EC50"
experimentalresult = 140

[[record]]
molecularstring = "O=C(O)c1ccc(-c2noc(-c3cc4c(C(F)(F)F)ccc(F)c4o3)n2)c(Cl)c1"
readouttype = "EC50"
experimentalresult = 23


Look up EC50 for the entries below, preserving their order.
1. Cc1ccc(C)c2oc(-c3nc(-c4ccc(C(=O)O)cc4N)no3)cc12
2. Cc1cc(C(=O)O)ccc1-c1nc(-c2cc3c(C)ccc(C)c3o2)no1

55
19

====

# testedSystem: RARβ (Mus musculus (Mouse))
# runDescription: Transactivation assay for RARβ (gal4-RAR fusion, pFR-luc reporter, COS-7 cells), Table 2
# Format: cell-based
# measurementSetup: COS-7 reporter, mean of three or more determinations, species not stated (method: mouse or human)
pEC50: −log10 of the molar value.
Tick label 1 if pEC50 is 8 or greater. Tick label 0 if pEC50 is less than 8.

[[record]]
molecularstring = "Cc1ccc(C)c2c(C)c(-c3nc(-c4ccc(C(=O)O)cc4)no3)oc12"
classification = "label 1"

[[record]]
molecularstring = "Cc1ccc(C)c2oc(-c3nsc(-c4ccc(C(=O)O)cc4)n3)cc12"
classification = "label 1"

[[record]]
molecularstring = "Cc1ccc(C)c2oc(-c3nnc(-c4ccc(C(=O)O)cc4Cl)o3)cc12"
classification = "label 0"

[[record]]
molecularstring = "Cc1ccc(C)c2oc(-c3nc(-c4ccc(C(=O)O)cc4)no3)cc12"
classification = "label 1"

[[record]]
molecularstring = "Cc1cc(-c2nc(-c3cc4c(C)ccc(C)c4o3)ns2)ccc1C(=O)O"
classification = "label 1"


Would you say O=C(O)c1ccc(-c2noc(-c3cc4c(Cl)ccc(Cl)c4o3)n2)cc1F shows pEC50 at minimum 8?
label 1

Would you say O=C(O)c1ccc(-c2noc(-c3cc4c(C(F)(F)F)ccc(F)c4o3)n2)cc1 shows pEC50 at minimum 8?
label 1

Would you say Cc1ccc(C)c2oc(-c3nsc(-c4ccc(C(=O)O)c(F)c4)n3)cc12 shows pEC50 at minimum 8?
label 1

Would you say Cc1ccc(C)c2oc(-c3nnc(-c4ccc(C(=O)O)c(F)c4)o3)cc12 shows pEC50 at minimum 8?
label 0

====

# testedSystem: RARα (Mus musculus (Mouse), UniProt P11416)
# Sequence (P11416 183-417): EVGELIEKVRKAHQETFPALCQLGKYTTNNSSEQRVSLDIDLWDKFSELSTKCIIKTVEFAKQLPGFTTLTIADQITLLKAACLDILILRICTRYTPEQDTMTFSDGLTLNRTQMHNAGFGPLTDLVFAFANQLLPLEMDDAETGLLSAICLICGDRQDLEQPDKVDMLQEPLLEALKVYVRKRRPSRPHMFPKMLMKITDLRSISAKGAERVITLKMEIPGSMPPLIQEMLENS
# runDescription: Transactivation assay for RARα (gal4-RAR fusion, pFR-luc reporter, COS-7 cells), Table 2
# measurementSetup: Table 2; COS-7 reporter; mean of three or more determinations; inactive = no agonist action at highest concentration tested
Provide the recorded pEC50 for the entries that follow.
One number for each entry, as −log10 of the molar value.

Below, 10 compounds whose answers are already recorded.
[[record]]
compound = "Cc1cc(-c2nc(-c3cc4c(C)ccc(C)c4o3)no2)ccc1C(=O)O [BHBA-032]"
readouttype = "pEC50"
experimentalresult = 6.82

[[record]]
compound = "Cc1ccc(C)c2oc(-c3noc(-c4ccc(C(=O)O)cc4)n3)cc12 [BHBA-028]"
readouttype = "pEC50"
experimentalresult = 7.59

[[record]]
compound = "Cc1ccc(C)c2oc(-c3nsc(-c4ccc(C(=O)O)c(F)c4)n3)cc12 [BHBA-044]"
readouttype = "pEC50"
experimentalresult = 7.59

[[record]]
compound = "Cc1cc(C(=O)O)ccc1-c1nc(-c2cc3c(C)ccc(C)c3o2)no1 [BHBA-029]"
readouttype = "pEC50"
experimentalresult = 6.68

[[record]]
compound = "Cc1ccc(C)c2sc(-c3nc(-c4ccc(C(=O)O)cc4Cl)no3)cc12 [BHBA-022]"
readouttype = "pEC50"
experimentalresult = 7.11

[[record]]
compound = "Cc1ccc(C)c2oc(-c3nnc(-c4ccc(C(=O)O)c(F)c4)o3)cc12 [BHBA-037]"
readouttype = "pEC50"
experimentalresult = 7.04

[[record]]
compound = "Cc1ccc(C)c2oc(-c3noc(-c4ccc(C(=O)O)cc4F)n3)cc12 [BHBA-030]"
readouttype = "pEC50"
experimentalresult = 7.24

[[record]]
compound = "Cc1ccc(C)c2oc(-c3nc(-c4ccc(C(=O)O)cc4Br)no3)cc12 [BHBA-003]"
readouttype = "pEC50"
experimentalresult = 6.80

[[record]]
compound = "Cc1ccc(C)c2c(C)c(-c3nc(-c4ccc(C(=O)O)cc4Cl)no3)oc12 [BHBA-009]"
readouttype = "pEC50"
experimentalresult = 7.49

[[record]]
compound = "Cc1ccc(C)c2c(C)c(-c3nc(-c4ccc(C(=O)O)cc4)no3)oc12 [BHBA-008]"
readouttype = "pEC50"
experimentalresult = 7.77


Look up pEC50 for the entries below, preserving their order.
1. Cc1cc(-c2noc(-c3cc4c(C)ccc(C)c4o3)n2)ccc1C(=O)O [BHBA-006]
2. Cc1ccc(C)c2oc(-c3nc(-c4ccc(C(=O)O)cc4Cl)no3)cc12 [BHBA-002]
3. O=C(O)c1ccc(-c2noc(-c3cc4c(C(F)(F)F)ccc(F)c4o3)n2)c(Cl)c1 [BHBA-020]
4. Cc1cc(-c2nc(-c3cc4c(C)ccc(C)c4o3)ns2)ccc1C(=O)O [BHBA-043]
5. Cc1ccc(C)c2oc(-c3nc(-c4ccc(C(=O)O)c(F)c4)no3)nc12 [BHBA-026]

1: 7.05; 2: 6.87; 3: 7.22; 4: 7.36; 5: 7.33

Cited source for all entries: patent US10752616B2
